- assay.system: PLK4 (h) (Homo sapiens, UniProt O00444)
- Sequence (O00444 whole entry): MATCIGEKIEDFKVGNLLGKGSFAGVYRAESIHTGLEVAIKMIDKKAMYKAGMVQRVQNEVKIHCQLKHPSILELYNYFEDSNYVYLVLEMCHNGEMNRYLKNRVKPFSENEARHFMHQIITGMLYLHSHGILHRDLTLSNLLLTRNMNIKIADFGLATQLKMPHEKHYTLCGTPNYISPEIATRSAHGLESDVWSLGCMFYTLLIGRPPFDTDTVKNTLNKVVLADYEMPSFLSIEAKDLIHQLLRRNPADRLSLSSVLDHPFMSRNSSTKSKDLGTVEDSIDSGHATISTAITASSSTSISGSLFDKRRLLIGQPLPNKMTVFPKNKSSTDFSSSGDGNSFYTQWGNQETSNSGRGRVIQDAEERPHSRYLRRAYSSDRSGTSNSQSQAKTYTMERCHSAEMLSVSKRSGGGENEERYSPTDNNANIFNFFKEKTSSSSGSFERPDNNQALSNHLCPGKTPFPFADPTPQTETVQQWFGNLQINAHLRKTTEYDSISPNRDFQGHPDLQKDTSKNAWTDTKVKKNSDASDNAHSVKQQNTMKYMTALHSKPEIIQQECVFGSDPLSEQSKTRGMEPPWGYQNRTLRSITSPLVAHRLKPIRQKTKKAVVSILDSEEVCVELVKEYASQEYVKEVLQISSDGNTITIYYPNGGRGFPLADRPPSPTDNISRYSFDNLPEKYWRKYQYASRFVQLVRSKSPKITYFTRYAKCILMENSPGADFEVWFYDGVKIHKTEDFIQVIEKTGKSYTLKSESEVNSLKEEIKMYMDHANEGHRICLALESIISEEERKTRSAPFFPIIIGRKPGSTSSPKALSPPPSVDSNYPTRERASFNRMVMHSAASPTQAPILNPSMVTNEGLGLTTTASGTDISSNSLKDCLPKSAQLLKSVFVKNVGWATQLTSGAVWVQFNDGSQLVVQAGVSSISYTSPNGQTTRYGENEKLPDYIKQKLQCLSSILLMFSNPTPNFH
- assay.remarks: PLK-4 human kinase assay (SPA)
- Format: biochemical
- measurement.setup: read-out: PLK4 pIC50 (converted)
measured.parameter: IC50

1) COCCN1CCCOc2cc(ccc2Cl)N/C=C2\C(=O)Nc3ncnc(c32)NCCN(C)C(=O)C1 [Compound 174] | > 10 µM
2) COc1cc2cc(c1OC)CN(C)CCCC(=O)N(C)CCNc1ncnc3c1/C(=C/N2)C(=O)N3 [Compound 118] | > 10 µM

Next item in the queue.
## Task May I ask what IC50 has been recorded for O=C1Nc2ncnc3c2/C1=C/Nc1cccc(c1)OCCCN1C[C@H](O)C[C@@H]1C(=O)N1CCN3CC1 [Compound 175] ?
## Result > 10 µM
